src = ChEMBL document CHEMBL4000190

SYSTEM NAME: DNA topoisomerase 2-alpha (Homo sapiens) (UniProt P11388)
Sequence (P11388 whole entry): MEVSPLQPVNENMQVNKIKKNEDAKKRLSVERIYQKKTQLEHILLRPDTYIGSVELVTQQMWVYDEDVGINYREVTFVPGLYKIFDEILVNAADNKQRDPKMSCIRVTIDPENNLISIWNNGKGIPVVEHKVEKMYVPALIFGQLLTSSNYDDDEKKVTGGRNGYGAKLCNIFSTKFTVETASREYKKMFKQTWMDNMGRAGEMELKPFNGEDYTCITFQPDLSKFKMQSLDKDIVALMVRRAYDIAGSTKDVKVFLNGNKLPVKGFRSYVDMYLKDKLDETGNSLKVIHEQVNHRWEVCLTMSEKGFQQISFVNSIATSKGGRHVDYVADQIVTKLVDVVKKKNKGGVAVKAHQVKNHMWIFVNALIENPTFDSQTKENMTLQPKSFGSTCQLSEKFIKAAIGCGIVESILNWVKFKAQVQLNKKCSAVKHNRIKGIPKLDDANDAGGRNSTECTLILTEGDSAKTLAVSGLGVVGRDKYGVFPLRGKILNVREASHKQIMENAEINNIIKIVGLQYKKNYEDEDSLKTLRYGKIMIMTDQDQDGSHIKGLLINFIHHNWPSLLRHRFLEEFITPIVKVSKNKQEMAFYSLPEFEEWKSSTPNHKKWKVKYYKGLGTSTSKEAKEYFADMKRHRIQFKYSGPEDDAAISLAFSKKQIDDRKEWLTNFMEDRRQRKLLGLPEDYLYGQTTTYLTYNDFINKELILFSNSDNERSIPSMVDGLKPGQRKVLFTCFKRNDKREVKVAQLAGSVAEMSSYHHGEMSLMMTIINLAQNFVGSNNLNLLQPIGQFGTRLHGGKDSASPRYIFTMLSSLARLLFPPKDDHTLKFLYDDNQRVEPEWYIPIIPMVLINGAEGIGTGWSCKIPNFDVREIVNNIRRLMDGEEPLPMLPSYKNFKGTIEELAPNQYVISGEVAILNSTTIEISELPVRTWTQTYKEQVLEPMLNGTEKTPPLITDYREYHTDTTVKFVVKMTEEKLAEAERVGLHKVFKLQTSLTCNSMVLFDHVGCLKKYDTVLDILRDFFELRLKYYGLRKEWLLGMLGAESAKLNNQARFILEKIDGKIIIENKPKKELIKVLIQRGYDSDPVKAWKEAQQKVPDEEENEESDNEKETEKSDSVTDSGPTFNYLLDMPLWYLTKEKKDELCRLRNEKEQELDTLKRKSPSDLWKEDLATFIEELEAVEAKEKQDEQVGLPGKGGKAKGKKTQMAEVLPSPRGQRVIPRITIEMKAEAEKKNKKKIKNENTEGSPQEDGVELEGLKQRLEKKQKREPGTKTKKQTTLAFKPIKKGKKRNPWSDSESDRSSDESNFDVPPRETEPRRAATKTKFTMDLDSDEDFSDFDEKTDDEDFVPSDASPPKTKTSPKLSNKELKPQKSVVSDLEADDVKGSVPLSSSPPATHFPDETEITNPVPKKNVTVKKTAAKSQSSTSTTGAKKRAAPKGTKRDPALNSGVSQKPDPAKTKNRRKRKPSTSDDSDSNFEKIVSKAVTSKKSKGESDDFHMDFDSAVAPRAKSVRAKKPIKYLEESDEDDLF
ASSAY DETAILS: Poison activity at recombinant human topoisomerase-2alpha expressed in Saccharomyces cerevisiae JEL1 harboring topoisomerase1 deletion mutant assessed as concentration required to triple the level of DNA cleavage complex relative to basal level using supercoiled pBR322 DNA as substrate measured after 6 mins by ethidium bromide staining based agarose gel electrophoresis
The label MET is reserved for Activity strictly under 80 µM; NOT MET covers values equal to or above it.

IN: Regarding Nc1c2c(nc3ccccc13)CC(C(F)(F)F)CC2=O (stereo not given) , kindly confirm whether its Activity is beneath 80 µM.
OUT: NOT MET

IN: Regarding Nc1c2c(nc3ccc(F)cc13)CC(C(F)(F)F)CC2=O (stereo not given) , kindly confirm whether its Activity is beneath 80 µM.
OUT: NOT MET

IN: Regarding COc1cc(NS(C)(=O)=O)ccc1Nc1c2ccccc2nc2ccccc12 , kindly confirm whether its Activity is beneath 80 µM.
OUT: MET

IN: Regarding Nc1c2c(nc3ccc(Cl)cc13)CC(C(F)(F)F)CC2=O (stereo not given) , kindly confirm whether its Activity is beneath 80 µM.
OUT: NOT MET

IN: Regarding Nc1c2c(nc3ccc(Br)cc13)CC(C(F)(F)F)CC2=O (stereo not given) , kindly confirm whether its Activity is beneath 80 µM.
OUT: NOT MET

IN: Regarding Nc1c2c(nc3ccc([N+](=O)[O-])cc13)CC(C(F)(F)F)CC2=O (stereo not given) , kindly confirm whether its Activity is beneath 80 µM.
OUT: NOT MET

IN: Regarding c1ccc2nc3ccccc3cc2c1 , kindly confirm whether its Activity is beneath 80 µM.
OUT: NOT MET

IN: Regarding O=C1CC(C(F)(F)F)Cc2nc3ccccc3cc21 (stereo not given) , kindly confirm whether its Activity is beneath 80 µM.
OUT: NOT MET

IN: Regarding Cc1ccc2c(N)c3c(nc2c1)CC(C(F)(F)F)CC3=O (stereo not given) , kindly confirm whether its Activity is beneath 80 µM.
OUT: NOT MET

IN: Regarding COc1cc([C@@H]2c3cc4c(cc3[C@@H](O[C@@H]3O[C@@H]5CO[C@@H](C)O[C@H]5[C@H](O)[C@H]3O)[C@H]3COC(=O)[C@H]23)OCO4)cc(OC)c1O , kindly confirm whether its Activity is beneath 80 µM.
OUT: MET
